# System: Saccharomyces cerevisiae
# ASSAY_NAME: protein stability index of tFT-peptide fusion (C-terminal peptide) (PSI (0-1 scale)); higher = more stable (slower turnover)
# CONDITION_SUMMARY: genetic background: wild type; temperature: 30 C

QUERY_SEQUENCE	protein stability index
GNSDGSVEVTEK [RKI1 C-terminal 12 aa]	0.705
VKHAEYAINAFF [YPR147C C-terminal 12 aa]	0.682
IERLFKEEEYYS [TCD1 C-terminal 12 aa]	0.703
LEPQESKPTIDH [AIM34 C-terminal 12 aa]	0.69
AVETLKKGGFLP [YDL177C C-terminal 12 aa]	0.685
RLGASNSSNNDA [SLY1 C-terminal 12 aa]	0.68
NSSSNESIQVVV [SFK1 C-terminal 12 aa]	0.696
KINYDAIDGLFR [BRF1 C-terminal 12 aa]	0.681
DGLLKNVWSYSR [RPS21A C-terminal 12 aa]	0.714
SSLARPSLFSSE [YBL077W C-terminal 12 aa]	0.714

----------
# Tested on: Saccharomyces cerevisiae
# ASSAY_NAME: protein stability index of tFT-peptide fusion (C-terminal peptide) (PSI (0-1 scale)); higher = more stable (slower turnover)
# CONDITION_SUMMARY: genetic background: wild type; temperature: 30 C
Measured protein stability index of individual entries

QUERY_SEQUENCE	protein stability index
SGGGRAECGEVR	0.702
PAHPPPPATPCP	0.682
SFARPSFVRPFA	0.694
MDKIKKNYSQIG	0.693
PAPSPLVLFFGF	0.692
LSPAAPTHAYAA	0.72

----------
# Tested on: Saccharomyces cerevisiae
# ASSAY_NAME: protein stability index of tFT-peptide fusion (C-terminal peptide) (PSI (0-1 scale)); higher = more stable (slower turnover)
# CONDITION_SUMMARY: genetic background: wild type; temperature: 30 C

QUERY_SEQUENCE	protein stability index
TRGRGDGQLDSA	0.699
YPPRLPSILPFP	0.696
CALFLLSSPSPT	0.699
RPALRPSPPLSP	0.682
APAWSFFGLDKS	0.702
CGSNSSLQECGV	0.679
GGLRRMGVRPCA	0.715

----------
Measured protein stability index by item
# System: Saccharomyces cerevisiae
# ASSAY_NAME: protein stability index of tFT-peptide fusion (C-terminal peptide) (PSI (0-1 scale)); higher = more stable (slower turnover)
# CONDITION_SUMMARY: genetic background: wild type; temperature: 30 C

QUERY_SEQUENCE	SYSTEM_NAME	protein stability index
LLFGDEVVACKD [YDL172C C-terminal 12 aa]	Saccharomyces cerevisiae	0.691
ERNPTQRPQRRY [RPS10A C-terminal 12 aa]	Saccharomyces cerevisiae	0.679
FEHFHCVLDQIL [YDR203W C-terminal 12 aa]	Saccharomyces cerevisiae	0.695
SPGEYEIGDMEN [YDR061W C-terminal 12 aa]	Saccharomyces cerevisiae	0.681
RLDRHFEKKKKV [RDS3 C-terminal 12 aa]	Saccharomyces cerevisiae	0.7

----------
# Test system: Saccharomyces cerevisiae
# ASSAY_NAME: protein stability index of tFT-peptide fusion (C-terminal peptide) (PSI (0-1 scale)); higher = more stable (slower turnover)
# CONDITION_SUMMARY: genetic background: das1 deletion; temperature: 30 C
Listing: protein stability index of selected sequences
EXPERIMENTAL_ENDPOINT: protein stability index

QUERY_SEQUENCE	EXPERIMENTAL_ENDPOINT	RESULT
QLSRNEESLMKK [COS5 C-terminal 12 aa]	protein stability index	0.7
QINDLEIYRKRL [SNT309 C-terminal 12 aa]	protein stability index	0.685
RMYTRHKTSFPL [YAL042C-A C-terminal 12 aa]	protein stability index	0.711
TMSLLKRNPRNH [TRM44 C-terminal 12 aa]	protein stability index	0.704
VFQRAIEKALGE [STR2 C-terminal 12 aa]	protein stability index	0.707
EDLDADGDHKLV [TUB4 C-terminal 12 aa]	protein stability index	0.684
LICQTESNPKIV [VPS8 C-terminal 12 aa]	protein stability index	0.708
GGNSSKKGKKKR [RQC2 C-terminal 12 aa]	protein stability index	0.683
ISKKYYSRYDKK [OM14 C-terminal 12 aa]	protein stability index	0.683
REWASNTVKKEK [EMC5 C-terminal 12 aa]	protein stability index	0.698
RDHDLKDCGDIF [OSH2 C-terminal 12 aa]	protein stability index	0.71
SSKKTIQEEIYI [DPB2 C-terminal 12 aa]	protein stability index	0.698
LEPQESKPTIDH [AIM34 C-terminal 12 aa]	protein stability index	0.697
DNNTVTANPTAR [YJR012C C-terminal 12 aa]	protein stability index	0.703
LLKKLKVVFGIE [FUN12 C-terminal 12 aa]	protein stability index	0.703
AVKYLYRQIVRN [EFM2 C-terminal 12 aa]	protein stability index	0.683
KMDKRAKNSDSA [RPL8A C-terminal 12 aa]	protein stability index	0.691
RELTDLFGYKLG [SLM4 C-terminal 12 aa]	protein stability index	0.708
YAINSGARFDLS [HUL5 C-terminal 12 aa]	protein stability index	0.713
SPEQLKVSLKWH [SKM1 C-terminal 12 aa]	protein stability index	0.718
YFSSNISMKTEN [REB1 C-terminal 12 aa]	protein stability index	0.717
LRVYENFQKFIK [YMR262W C-terminal 12 aa]	protein stability index	0.72
DGGWGNRGRSNY [DBP2 C-terminal 12 aa]	protein stability index	0.701
HNLHSYEKRLYN [IMD4 C-terminal 12 aa]	protein stability index	0.702
GYSPKPISKKEE [ALE1 C-terminal 12 aa]	protein stability index	0.719
VSGKKFQNVRVL [YPL247C C-terminal 12 aa]	protein stability index	0.705
